Source of measurements: a melting point compilation (Tetko et al.)

PARAMETER: melting point (°C)
Express it in °C; write the number only.

Previously resolved entries follow.
INSERT INTO results (molecule, parameter, observed_value) VALUES
  ('Cc1cccnc1C(N)=S', 'melting point', 120),
  ('CN(C)c1ccc(N=C(C#N)c2ccc(C(C#N)=Nc3ccc(N(C)C)cc3)cc2)cc1', 'melting point', 240),
  ('CC(=CCNc1ncnc2nc[nH]c12)CO', 'melting point', 208),
  ('C#CC1(O)CCC2C3CCC4=CC(=O)CCC4C3CCC21C (stereo unspecified)', 'melting point', 204),
  ('Cn1ncc2c(=N)n(N)cnc21', 'melting point', 185),
  ('Nc1ccc(-c2ccc(-c3ccc(N)cc3)cc2)cc1', 'melting point', 247),
  ('CS(=O)(=O)c1ccc(O)cc1', 'melting point', 93),
  ('Cc1nc2ccccc2n1CCc1nnc(SCc2ccccc2)n1-c1ccccc1', 'melting point', 130),
  ('OCc1c(F)ccc(F)c1F', 'melting point', 46),
  ('COc1ccc(-c2cc3nc(-c4cccs4)cc(C(F)(F)F)n3n2)cc1', 'melting point', 201);

What value of measured melting point is listed for Cc1cc(N=Nc2ccc(N=Nc3ccccc3)cc2)ccc1N=Nc1ccc(N=Nc2ccccc2)cc1 ?
209

What value of melting point has been reported for the following molecule? CC=CCCC=CC
-76

What melting point value was documented for this molecule, COc1cccc(Br)c1O ?
64

Which melting point value is on record for CN(C)c1ccc(CCC2CCc3ccccc3N2N=O)cc1 (stereo unspecified) ?
91

Given the entry FC(F)(F)C(F)(F)C(F)(F)C(F)(F)C(F)(F)C(F)(F)F , report its measured melting point.
-4

Which melting point value is on record for O=C(O)C1(C(F)(F)F)CC1 ?
88

Requested read-out: melting point. Entry: OCc1cccc2nonc12
72

Consider the molecule O=C1c2ccccc2C(=O)N1CCCCCBr and give its measured melting point.
60

Given the entry Cc1cc(C#N)ccc1Br , report its measured melting point.
53

Given the molecule CCCCCCc1ccc(-c2ccccc2)cc1 , what is its reported melting point?
30

Please report the recorded melting point for CNC(=O)ON=C(SC)C(=O)N(C)C .
101
